Tested on: MDCK
ASSAY_TEXT: Cytotoxicity against MDCK cells after 48 hrs by SRB assay
Assay type: cell-based
MEASUREMENT_SETUP: Canis lupus familiaris
# maps each entry to its CC50
MEASURED_ATTRIBUTE: CC50 (µg/mL)

INSERT INTO measurements (compound_smiles, measured_attribute, unit_abbrev, numeric_readout) VALUES
  ('O=c1cc(-c2ccccc2)oc2cc(OCCCCNc3nc4ccc(F)cc4s3)cc(O)c12', 'CC50', 'µg/mL', 324),
  ('CCOc1ccc2nc(NCCCCOc3cc(O)c4c(=O)cc(-c5ccccc5)oc4c3)sc2c1', 'CC50', 'µg/mL', 306),
  ('COc1ccc2nc(NCCCCOc3cc(O)c4c(=O)cc(-c5ccccc5)oc4c3)sc2c1', 'CC50', 'µg/mL', 285),
  ('O=c1cc(-c2ccccc2)oc2cc(OCCCCNc3nc4ccc([N+](=O)[O-])cc4s3)cc(O)c12', 'CC50', 'µg/mL', 310),
  ('Cc1ccc2nc(NCCCCOc3cc(O)c4c(=O)cc(-c5ccccc5)oc4c3)sc2c1', 'CC50', 'µg/mL', 294),
  ('N#Cc1ccc2nc(NCCCCOc3cc(O)c4c(=O)cc(-c5ccccc5)oc4c3)sc2c1', 'CC50', 'µg/mL', 312),
  ('O=c1cc(-c2ccccc2)oc2cc(OCCCCNc3nc4ccc(C(F)(F)F)cc4s3)cc(O)c12', 'CC50', 'µg/mL', 278),
  ('CCCC(=O)c1ccc2nc(NCCCCOc3cc(O)c4c(=O)cc(-c5ccccc5)oc4c3)sc2c1', 'CC50', 'µg/mL', 278),
  ('O=c1cc(-c2ccccc2)oc2cc(OCCCCNc3nc4ccc(Cl)cc4s3)cc(O)c12', 'CC50', 'µg/mL', 338),
  ('O=c1cc(-c2ccccc2)oc2cc(OCCCCNc3nc4ccc(Br)cc4s3)cc(O)c12', 'CC50', 'µg/mL', 289),
  ('CC(=O)Nc1ccc2nc(NCCCCOc3cc(O)c4c(=O)cc(-c5ccccc5)oc4c3)sc2c1', 'CC50', 'µg/mL', 291);

These measurements were taken from ChEMBL document CHEMBL3632617.
